Test system: OVCAR-5 ovarian
Test: NCI tumour cell line growth inhibition, 48 h
The entries below are paired with their reported TGI.

Past entries and their recorded results:
Cc1cc(C)c(C2CNCc3cc4c(cc32)CNCC4c2c(C)cc(C)cc2C)c(C)c1 (stereo unspecified): 20.4 µg/mL
CC1(C)CC(=O)c2c(nc3c4c([nH]c(-c5ccc(Br)cc5)c24)CC(C)(C)C3)C1: > 100 µM
CCN(CCN(CC)C(=O)Nc1ccccc1)C(=O)Nc1ccccc1: > 100 µM
O=NN(CCF)C(=O)NC1CCSCC1: > 100 µM
COc1ccc(CNc2cc(=O)n(C)c(=O)[nH]2)cc1: > 100 µM

query: Recorded TGI of `O=C(O)c1cc(CCc2cc(O)ccc2O)ccc1O` , please.
result: > 100 µM

query: Recorded TGI of CC(CO)(Nc1ccc([N+](=O)[O-])cc1[N+](=O)[O-])C(=O)O (stereo unspecified) , please.
result: 89 µM

====

Test system: SK-MEL-28 melanoma
Assay: NCI tumour cell line growth inhibition, 48 h
measured_metric: TGI

Past entries and their recorded results:
CNNC(=NS(=O)(=O)c1cc(C#N)c(NNC)cc1S)NNC: > 10 µM
COc1cc(Oc2nc3ccc(C(F)(F)F)cc3nc2-c2ccccc2)cc(OC)c1OC: > 100 µM
C=C1CC[C@@H](C)[C@](C)(CCc2ccoc2)C/C=C\C=C/1C(=O)O: 48.6 µM
COc1cc(Nc2nc3cc(C(F)(F)F)ccc3n3cccc23)cc(OC)c1OC: > 100 µM
C[C@@H]1O[C@@H](O[C@@H]2[C@@H](O)[C@H](OCCc3ccc(O)c(O)c3)O[C@H](CO)[C@H]2OC(=O)/C=C/c2ccc(O)c(O)c2)[C@H](O)[C@H](OC2OC[C@](O)(CO)[C@H]2O)[C@H]1O (stereo partly drawn): > 100 µM

query: Recorded TGI of COC(=O)Cc1c(-c2c(CC(=O)OC)c3ccccc3n2C2OC(COC(C)=O)C(OC(C)=O)C(OC(C)=O)C2OC(C)=O)[nH]c2ccccc12 (stereo not drawn) , please.
result: > 100 µM

query: Recorded TGI of `O=C(O)CCNS(=O)(=O)c1ccc([N+](=O)[O-])cc1` , please.
result: > 100 µM

query: Recorded TGI of CC[C@@]1(O)C(=O)OCc2c1cc1n(c2=O)Cc2c-1nc1ccccc1c2/C=N\NC(=O)C(N)CCSC (stereo partly drawn) , please.
result: > 100 µM

====

Test system: OVCAR-8 ovarian
Experiment: NCI tumour cell line growth inhibition, 48 h
measured_metric: TGI

Past entries and their recorded results:
COc1cccc(/N=N/C(=NNC(=O)c2ccc(C)cc2)c2ccc(N(C)C)cc2)c1: > 100 µM
COc1ccc(-c2[nH]c3ccccc3c2CCNS(=O)(=O)c2ccc(C)cc2)cc1: > 10 µM
Cc1ccccc1-n1c(N)c(-c2nc3ccccc3[nH]2)sc1=S: 84.2 µM
CC(C)C[C@H](NC(=O)CCn1ccc2ccccc2c1=O)B(O)O: > 100 µM

query: Recorded TGI of `Nc1ccc(Nc2cc(=O)[nH]c(=O)[nH]2)cc1Cl` , please.
result: > 100 µM

query: Recorded TGI of `COc1cc(CNc2nc3ccccc3nc2C(=O)O)cc(OC)c1OC` , please.
result: > 100 µM

query: Recorded TGI of `COc1ccc2c(c1)C(=O)c1c-2c(OCCN(C)C)nc2ccccc12` , please.
result: 11.9 µM

query: Recorded TGI of `O=C1N[C@@H]2C(=C[C@H](O)[C@@H](O)[C@H]2O)c2cc3c(c(O)c21)OCO3` , please.
result: 0.0613 µM
